Form field: TGI (one value per entry).
# System: SW-620 colon
# method_description: NCI tumour cell line growth inhibition, 48 h
value_kind: TGI

>>> result("CCOC(=O)C12CN(C34CC5CC(CC(C5)C3)C4)CC(C(=O)OCC)(C1=O)C(c1ccccc1)OC2c1ccccc1 (stereo not given)")
"> 100 µM"
>>> result("CC(=O)[CH-]C(=O)c1ccccc1.CC(=O)[CH-]C(=O)c1ccccc1.[O-]Cc1cccs1.[O-]Cc1cccs1.[Ti+4]")
"> 100 µM"
>>> result("ClCc1nc2cc(Cl)ccc2o1")
"> 67.2 µM"
>>> result("COC(=O)Oc1nn(C(=O)OC)c(=O)c2ccccc12 (tested in a mixture with another compound)")
"> 100 µM"
>>> result("CCOC(=O)/C(C#N)=N\\Nc1ccc(-n2c(C)nc3ccc(Br)cc3c2=O)cc1")
"> 100 µM"
